Target: Serine/threonine-protein kinase Sgk2 (Homo sapiens);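 also: each value is a mean percent inhibition of SGK2 from the GSK PKIS kinase screen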
Sequence (whole entry): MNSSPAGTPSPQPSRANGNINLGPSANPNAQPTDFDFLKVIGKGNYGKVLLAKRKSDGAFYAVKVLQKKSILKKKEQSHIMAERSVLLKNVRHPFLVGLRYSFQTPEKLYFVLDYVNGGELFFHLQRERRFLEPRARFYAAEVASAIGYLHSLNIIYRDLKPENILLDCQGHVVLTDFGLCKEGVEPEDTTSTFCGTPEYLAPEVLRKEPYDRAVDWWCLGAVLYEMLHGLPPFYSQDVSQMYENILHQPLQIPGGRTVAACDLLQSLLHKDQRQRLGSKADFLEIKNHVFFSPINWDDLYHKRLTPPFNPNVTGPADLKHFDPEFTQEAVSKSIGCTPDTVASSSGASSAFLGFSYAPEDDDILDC
Details: at 0.1 µM
readout-name: inhibition (%)
Write down the numeric answer in % and omit the unit.

Past entries and their recorded results:
In [3]: df
Out[3]:
                                   compound  readout_name  obs_value
0  NS(=O)(=O)c1ccc(N/N=C2\C(=O)Nc3ccc(Cl)cc32)cc1    inhibition       2.41
1             CCOc1nccc2c1nc(-c1nonc1N)n2CC    inhibition       4.13

Sample Nc1nccc(-c2c(-c3ccc(F)cc3)nn3cc(C(F)(F)F)ccc23)n1 , system: Serine/threonine-protein kinase Sgk2 (Homo sapiens). Its inhibition is 2.28

Let me check: Nc1nccc(-c2c(-c3ccc(F)cc3)ncn2CCCN2CCOCC2)n1 , system Serine/threonine-protein kinase Sgk2 (Homo sapiens), measured inhibition is 0.32

// inhibition (Serine/threonine-protein kinase Sgk2 (Homo sapiens)) for CCCN1CCCC(c2ccc(Nc3nc(Nc4cc(F)ccc4C(N)=O)c4cc[nH]c4n3)c(OC)c2)C1 (stereo not given) = 1.44

Record Cc1ccc(Nc2ccnc(Nc3cccc(C(N)=O)c3)n2)cc1O ; system Serine/threonine-protein kinase Sgk2 (Homo sapiens); inhibition = 5.55

// inhibition (Serine/threonine-protein kinase Sgk2 (Homo sapiens)) for COC(=O)Nc1nc2cc(Oc3ccc(NC(=O)Nc4cccc(Br)c4)cc3)ccc2[nH]1 = 2.07

// compound COc1cc(Nc2nccc(-c3cnn4ncccc34)n2)cc(OC)c1 , assay Serine/threonine-protein kinase Sgk2 (Homo sapiens), inhibition value: 1.68

Per the reported Serine/threonine-protein kinase Sgk2 (Homo sapiens) data, Nc1nccc(C#Cc2cncnc2Nc2ccc(OCc3cccc(F)c3)c(Cl)c2)n1 has inhibition of 1.54

Short answer on Serine/threonine-protein kinase Sgk2 (Homo sapiens) for ON=C1CCc2cc(-c3nc(C4CCNCC4)[nH]c3-c3ccncc3)ccc21 , inhibition: -0.56

The observed inhibition for O=C(Nc1ccc(Oc2ccc3[nH]c(NC(=O)c4ccco4)nc3c2)cc1)Nc1cc(C(F)(F)F)ccc1F when tested with Serine/threonine-protein kinase Sgk2 (Homo sapiens) stands at 0.44

Tested system Serine/threonine-protein kinase Sgk2 (Homo sapiens); inhibition recorded for NS(=O)(=O)c1ccc(-c2cc3ccncc3cc2OCc2ccccc2)cc1 was 1.44

Response field inhibition (Serine/threonine-protein kinase Sgk2 (Homo sapiens)) for item Cc1nc(-c2ccccc2)n2nc(NCCCN3CCOCC3)ncc12 : 2.32

Result for CS(=O)(=O)Nc1cccc(-c2ccc3c(NC(=O)C4CC4)n[nH]c3c2)c1 , tested on Serine/threonine-protein kinase Sgk2 (Homo sapiens), inhibition: 0.93

Observed inhibition, Serine/threonine-protein kinase Sgk2 (Homo sapiens), O=S(=O)(CCOCc1ccc(-c2ccc3ncnc(Nc4ccc(OCc5cccc(F)c5)c(Cl)c4)c3c2)o1)c1ccccc1 : 3.28

Record for COC(=O)c1ccc2c(c1)C(=Cc1cc(Br)c(O)c(Br)c1)C(=O)N2 under target or system Serine/threonine-protein kinase Sgk2 (Homo sapiens): inhibition reported as 5.27

Form field, inhibition with Serine/threonine-protein kinase Sgk2 (Homo sapiens), item CN(C)C(=O)O[C@H]1CN[C@H](C#Cc2cc3ncnc(Nc4ccc(OCc5cccc(F)c5)c(Cl)c4)c3s2)C1 : 0.9

Assay Serine/threonine-protein kinase Sgk2 (Homo sapiens), sample Nc1ccc(C#Cc2cncnc2Nc2ccc(OCc3cccc(F)c3)c(Cl)c2)cc1 , inhibition read: 4.82

Considering NS(=O)(=O)c1ccc(NC=C2C(=O)Nc3ccc4ncsc4c32)cc1 , its inhibition with Serine/threonine-protein kinase Sgk2 (Homo sapiens) was recorded as 8.38

inhibition value, target or system Serine/threonine-protein kinase Sgk2 (Homo sapiens), for O=C1Nc2ccc(-c3cccnc3)cc2C1=Cc1cc(Br)c(O)c(Br)c1 : 1.63

* * *

Biological target: Receptor-type tyrosine-protein kinase FLT3 (Homo sapiens);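 also: mean inhibition value from the GSK PKIS kinase screening set, with the assay run by Nanosyn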
Settings: at 0.1 µM
readout-name: inhibition (%)
Note: unit % is implicit; provide only the numeric part.

>>> print(df.to_string())
                                   compound  obs_value
0  OCc1ccc(-c2nc(-c3ccccn3)c(-c3ccc4c(c3)OCO4)[nH]2)cc1       3.25
1  NS(=O)(=O)c1cccc(Nc2cc(-c3ccc(F)cc3)n[nH]2)c1       16.3
2  CCCN1CCCC(c2ccc(Nc3nc(Nc4cc(F)ccc4C(N)=O)c4cc[nH]c4n3)c(OC)c2)C1 (configuration not stated)       3.86
3   Cc1nc(-c2ccccc2)n2nc(NCCCN3CCOCC3)ncc12       2.39

Record summary for Cc1ccc2c(-c3ccnc(Nc4cccc(C(F)(F)F)c4)n3)c(-c3ccccc3)nn2n1 : reported inhibition = 1.89

The compound listed as CN1CCN(C(=O)c2ccc(NC(=O)Nc3ccc(N(C)c4ccnc(Nc5ccc(CS(C)(=O)=O)cc5)n4)cc3)cc2)CC1 has a reported inhibition of 64.7

get_value(item= NS(=O)(=O)c1ccc(NC=C2C(=O)Nc3ccc4ncsc4c32)cc1 , readout=inhibition) returns 47.7

* * *

The following compounds are listed with their measured inhibition values.
Test system: Epidermal growth factor receptor (Homo sapiens), P00533 [L861Q]
Sequence (P00533 whole entry L861Q): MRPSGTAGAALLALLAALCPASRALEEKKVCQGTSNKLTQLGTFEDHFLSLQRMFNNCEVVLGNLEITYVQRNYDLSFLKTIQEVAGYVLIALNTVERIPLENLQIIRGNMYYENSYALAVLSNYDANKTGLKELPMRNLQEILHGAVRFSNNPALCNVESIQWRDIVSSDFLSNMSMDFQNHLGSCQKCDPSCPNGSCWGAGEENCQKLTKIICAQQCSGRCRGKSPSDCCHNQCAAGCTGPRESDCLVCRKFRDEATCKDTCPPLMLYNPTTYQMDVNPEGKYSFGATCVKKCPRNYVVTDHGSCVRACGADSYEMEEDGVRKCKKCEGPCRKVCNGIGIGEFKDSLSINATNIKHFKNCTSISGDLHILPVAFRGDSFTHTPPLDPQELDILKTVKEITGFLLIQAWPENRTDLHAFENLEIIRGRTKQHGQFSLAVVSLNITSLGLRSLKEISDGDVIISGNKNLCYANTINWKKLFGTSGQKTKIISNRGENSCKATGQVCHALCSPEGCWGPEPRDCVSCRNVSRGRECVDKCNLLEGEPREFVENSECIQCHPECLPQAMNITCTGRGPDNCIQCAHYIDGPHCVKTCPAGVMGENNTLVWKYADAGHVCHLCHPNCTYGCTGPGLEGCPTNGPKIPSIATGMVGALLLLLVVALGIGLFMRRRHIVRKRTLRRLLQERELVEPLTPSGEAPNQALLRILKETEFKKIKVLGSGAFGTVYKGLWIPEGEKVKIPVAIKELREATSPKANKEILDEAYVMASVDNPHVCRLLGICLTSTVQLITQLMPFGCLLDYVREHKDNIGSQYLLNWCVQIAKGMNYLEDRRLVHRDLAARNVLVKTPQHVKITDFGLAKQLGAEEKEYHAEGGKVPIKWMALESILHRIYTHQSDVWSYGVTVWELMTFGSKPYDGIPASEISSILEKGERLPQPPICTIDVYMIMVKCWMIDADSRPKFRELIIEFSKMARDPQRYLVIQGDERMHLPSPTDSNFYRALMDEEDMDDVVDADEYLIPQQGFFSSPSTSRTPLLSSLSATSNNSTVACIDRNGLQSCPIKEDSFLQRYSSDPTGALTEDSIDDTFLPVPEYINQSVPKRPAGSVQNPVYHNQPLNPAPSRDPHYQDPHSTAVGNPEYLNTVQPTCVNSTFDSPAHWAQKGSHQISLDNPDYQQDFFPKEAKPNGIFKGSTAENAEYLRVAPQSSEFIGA
Settings: at 0.1 µM
Write the value in % as a bare number.

// ON=C1CCc2cc(-c3nc(C4CCNCC4)[nH]c3-c3ccncc3)ccc21 : inhibition value = 0.26

inhibition recorded for this compound, FC(F)(F)c1ccc(-c2nn3ncccc3c2-c2ccnc(Nc3ccc4c(c3)OCCO4)n2)cc1 , is 4.86

Reported inhibition ( C[C@@H](Oc1cc(-n2cnc3ccc(OCC4CCN(C)CC4)cc32)sc1C(N)=O)c1ccccc1C(F)(F)F ) = -0.46

Looking up CCS(=O)(=O)c1ccc(OC)c(Nc2ncc(-c3cccc(OC)c3)o2)c1 , I see its inhibition listed as 4.06

NC(=O)c1sc(-n2cnc3ccccc32)cc1OCc1ccccc1Br has a reported inhibition of 1.71

Record NS(=O)(=O)c1cccc(Nc2cc(-c3ccc(F)cc3)n[nH]2)c1 , field inhibition: 2.18

// sample COc1ccc(-c2nn3ncccc3c2-c2ccnc(Nc3cccc(C(F)(F)F)c3)n2)cc1 , its inhibition was 2.85

Value of inhibition reported for the compound Cc1ccc2c(-c3ccnc(Nc4cccc(C(F)(F)F)c4)n3)c(-c3ccccc3)nn2n1 is 48.2

Entry NS(=O)(=O)c1ccc(Nc2cc(-c3cccc(O)c3)n[nH]2)cc1 , inhibition reported as 3.68

inhibition recorded for this compound, CN(C)CCCn1c(-c2nonc2N)nc2cnccc21 , is 3.25

* * *

Molecular target: Protein kinase C alpha type (Homo sapiens);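 also: reported value is the mean inhibition, measured within the GSK PKIS screening panel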
Conditions: at 1 µM
Catalogue of molecules with associated inhibition
Please give a number only; it is taken to be in %.

In [3]: df
Out[3]:
                              smiles_record                         system_under_test  obs_value
0  NS(=O)(=O)c1ccc(NC=C2C(=O)Nc3ccc4ncsc4c32)cc1  Protein kinase C alpha type (Homo sapiens)        8.8
1     COC(=O)c1cncc(/C=C/c2c(C)cc(O)cc2C)c1  Protein kinase C alpha type (Homo sapiens)       1.39
2  O=C1Nc2ccc(-c3cccnc3)cc2C1=Cc1cc(Br)c(O)c(Br)c1  Protein kinase C alpha type (Homo sapiens)       2.45
3   Cc1ccc(O)cc1Nc1ccnc2ccc(S(C)(=O)=O)cc12  Protein kinase C alpha type (Homo sapiens)       11.2
4  O=C(Nc1ccc(Oc2ccc3[nH]c(NC(=O)c4ccco4)nc3c2)cc1)Nc1cc(C(F)(F)F)ccc1F  Protein kinase C alpha type (Homo sapiens)      -2.22

Continue with the molecule presented below.
Looking up O=C1Nc2ccccc2/C1=C/Nc1ccc2[nH]c(=O)[nH]c2c1 , I see its inhibition listed as 2.34

* * *

Let's look at some molecules and their measured inhibition.
Biological target: Serine/threonine-protein kinase DCLK2 (Homo sapiens) (UniProt Q8N568);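 also: each value is a mean percent inhibition of DCLK2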
Sequence (whole entry): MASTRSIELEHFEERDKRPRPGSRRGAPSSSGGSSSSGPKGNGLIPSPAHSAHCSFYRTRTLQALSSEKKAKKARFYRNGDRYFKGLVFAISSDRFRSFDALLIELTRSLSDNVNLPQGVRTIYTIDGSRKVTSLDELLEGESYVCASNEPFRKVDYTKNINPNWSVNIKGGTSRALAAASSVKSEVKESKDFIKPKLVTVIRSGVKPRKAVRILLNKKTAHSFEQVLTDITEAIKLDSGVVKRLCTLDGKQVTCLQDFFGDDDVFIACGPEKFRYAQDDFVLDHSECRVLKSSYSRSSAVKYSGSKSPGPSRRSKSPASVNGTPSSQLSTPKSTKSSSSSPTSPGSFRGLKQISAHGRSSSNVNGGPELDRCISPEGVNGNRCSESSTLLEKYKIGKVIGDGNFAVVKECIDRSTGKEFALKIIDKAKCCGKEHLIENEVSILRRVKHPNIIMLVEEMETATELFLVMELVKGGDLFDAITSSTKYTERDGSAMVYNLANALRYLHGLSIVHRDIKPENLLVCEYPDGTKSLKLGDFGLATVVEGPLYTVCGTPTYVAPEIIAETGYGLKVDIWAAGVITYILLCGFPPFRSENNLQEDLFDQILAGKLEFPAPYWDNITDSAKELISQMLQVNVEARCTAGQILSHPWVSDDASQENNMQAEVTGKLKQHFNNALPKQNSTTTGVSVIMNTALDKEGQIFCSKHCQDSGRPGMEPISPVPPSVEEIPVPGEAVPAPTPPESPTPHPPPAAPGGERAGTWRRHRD
Conditions: at 1 µM
Give just the numeric value; % need not be written.

Some solved entries appear below for comparison.
In [3]: df
Out[3]:
                              smiles_record  obs_value
0  Nc1ccc(C#Cc2cncnc2Nc2ccc(OCc3cccc(F)c3)c(Cl)c2)cc1      -0.03
1   Cc1nc(-c2ccccc2)n2nc(NCCCN3CCOCC3)ncc12       1.45
2  CC(C)c1ccc(Nc2nccc(-c3cnn4ncccc34)n2)cc1       -1.7
3  FC(F)(F)c1ccc(-c2nn3ncccc3c2-c2ccnc(Nc3ccc4c(c3)OCCO4)n2)cc1       2.77

Kindly consider the entry below.
Value (inhibition, Serine/threonine-protein kinase DCLK2 (Homo sapiens) (UniProt Q8N568)) for record CC(C)c1ccc2c(c1)NC(=O)/C2=N/Nc1ccc(S(N)(=O)=O)cc1 = -0.66
